# Assay name: SU-DIPG-XXV glioma cell viability, MIPE5.0 library, qHTS (AID 1347068);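 on IC50: cells exposed to compound for 48 hours before viability readout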
Inconclusive results are not listed. The source made the active and inactive calls. Cut-off not given; nearly all actives show IC50 up to about 30 µM.
Could you please pick one outcome from this set? active, inactive

Example entries and their recorded answers appear below.
[ask] Fill in: this test's call for `CCCCc1oc2ccc(NS(C)(=O)=O)cc2c1C(=O)c1ccc(OCCCN(CCCC)CCCC)cc1` is ___
[reply] active

[ask] How did this test come out for `NS(=O)(=O)c1cc(Cl)c(Cl)c(S(N)(=O)=O)c1` ?
[reply] inactive

[ask] Which outcome was entered for the compound `CNC(=O)c1ccccc1Sc1ccc2c(/C=C/c3ccccn3)n[nH]c2c1` in this test?
[reply] active

[ask] Query: recorded result category for `CC(=O)[C@H]1CC[C@H]2[C@@H]3CC=C4C[C@@H](O)CC[C@]4(C)[C@H]3CC[C@]12C` in this test
[reply] inactive

Further cases:
[ask] What was the test verdict on `O=C(/C=C/C=C/c1ccc2c(c1)OCO2)N1CCCCC1` ?
[reply] inactive

[ask] So what was the verdict on `NC[C@H]1O[C@H](O[C@H]2[C@H](O)[C@@H](O[C@H]3O[C@H](CO)[C@@H](O)[C@H](N)[C@H]3O)[C@H](N)C[C@@H]2N)[C@H](N)C[C@@H]1O` in this test?
[reply] inactive

[ask] Assay outcome for `NC(=O)c1cccc(N)c1` : what was it?
[reply] inactive

[ask] What is the recorded call for this compound in the test? `O=c1c(-c2ccc(O)cc2)coc2cc(O)ccc12`
[reply] inactive

[ask] How was `CN1CCCN=C1/C=C/c1cccs1` classified in this test?
[reply] inactive

[ask] Entry NCCCC(N)(C(=O)O)C(F)F (stereo not given) : call = ?
[reply] inactive
